# assayed-system: S1P1 (membranes prepared from S1P1/CHO cells) (Homo sapiens (Human), UniProt P21453)
# Sequence (P21453 whole entry): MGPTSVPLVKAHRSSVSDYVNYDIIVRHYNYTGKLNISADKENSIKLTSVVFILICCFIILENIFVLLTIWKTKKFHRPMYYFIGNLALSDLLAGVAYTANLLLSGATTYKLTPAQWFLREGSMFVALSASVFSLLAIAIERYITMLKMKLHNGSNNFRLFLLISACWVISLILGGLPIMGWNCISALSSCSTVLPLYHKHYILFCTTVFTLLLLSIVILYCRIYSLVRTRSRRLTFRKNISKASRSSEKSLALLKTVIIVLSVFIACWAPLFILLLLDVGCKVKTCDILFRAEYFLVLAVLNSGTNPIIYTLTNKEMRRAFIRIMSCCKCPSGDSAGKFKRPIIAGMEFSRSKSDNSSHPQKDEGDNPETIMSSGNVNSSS
# assay: Receptor [35S] GTPγS binding assay (S1P1 GTPγS)
# Type: biochemical
# conditions: phosphate examples; read-out: S1P1 GTPγS
pEC50: −log10 of the molar value.
reported-property: pEC50

compound: COc1cc(OC[C@@H]2CCc3cc([C@H]4CC[C@](N)(COP(=O)(O)O)C4)ccc3C2)ccc1Cl [compound 493]
endpoint-result: > 8.00

compound: CC(C)CSC[C@H]1CCc2cc([C@H]3CC[C@](N)(COP(=O)(O)O)C3)ccc2C1 [compound 509]
endpoint-result: 7.00 to 8.00

compound: CN(C)C(=O)c1cccc(OC[C@@H]2CCc3cc([C@H]4CC[C@](N)(COP(=O)(O)O)C4)ccc3C2)c1 [compound 495]
endpoint-result: 7.00 to 8.00

Then there is this compound:
The measured pEC50 associated with CC(C)COCC[C@H]1CCc2cc([C@H]3CC[C@](N)(COP(=O)(O)O)C3)ccc2C1 [compound 543] reads > 8.00

----------
Below: a set of entries, each annotated with reported pEC50.
# assayed-system: hS1P1/CHO cells (Homo sapiens (Human))
# assay: hS1P1 ERK phosphorylation (S1P1 pERK)
# Assay type: cell-based
# conditions: phosphate examples
pEC50: −log10 of the molar value.

Guide cases for pEC50, answers given:
compound: N[C@]1(COP(=O)(O)O)CC[C@H](c2ccc3c(c2)CC[C@H](CS(=O)(=O)c2ccccc2)C3)C1
endpoint-result: > 8.00

compound: N[C@]1(COP(=O)(O)O)CC[C@H](c2ccc3c(c2)CC[C@@H](/C=C/C2CCOCC2)C3)C1
endpoint-result: > 8.00

compound: N[C@]1(COP(=O)(O)O)CC[C@H](c2ccc3c(c2)CC[C@@H](COCCCC(F)(F)F)C3)C1
endpoint-result: 7.00 to 8.00

compound: CCCCCCC1CCc2cc([C@H]3CC[C@](N)(COP(=O)(O)O)C3)ccc2O1 (stereo partly shown)
endpoint-result: 7.00 to 8.00

compound: CCCCCO[C@@H]1CCc2cc([C@H]3CC[C@](N)(COP(=O)(O)O)C3)ccc2C1
endpoint-result: > 8.00

compound: C/C=C\CCC[C@H]1CCc2cc([C@H]3CC[C@](N)(COP(=O)(O)O)C3)ccc2C1
endpoint-result: 7.00 to 8.00

// field: pEC50; key: C=CCCCC[C@@H]1CCc2cc([C@H]3CC[C@](N)(COP(=O)(O)O)C3)ccc2C1 ; value = 7.00 to 8.00

----------
List of EC50 values.
# assayed-system: S1P1 (membranes prepared from S1P1/CHO cells) (Homo sapiens (Human), UniProt P21453)
# assay: Receptor [35S] GTPγS binding assay (S1P1 GTPγS)
# Type: biochemical
# conditions: phosphate examples; read-out: S1P1 GTPγS
# Protocol: Receptor [^35S] GTPγS Binding Assays: (S1P1 GTPγS/S1P3 GTPγS) Compounds were loaded in a 384 Falcon v-bottom plate (0.5 μl/well in a 11 point, 3-fold dilution). Membranes prepared from S1P1/CHO cells or EDG3-Gal5-bla HEK293T cells (EDG3 equivalent S1P3) were added to the compound plate (40 μl/well, final protein 3 μg/well) with MULTIDROP®. [^35S] […]

Example cases with answers are listed next.
compound: CC(C)OCCC[C@H]1CCc2cc([C@@H]3CC[C@@](N)(COP(=O)(O)O)C3)ccc2C1
assayed-system: S1P1 (membranes prepared from S1P1/CHO cells) (Homo sapiens (Human), UniProt P21453)
reported-property: EC50
endpoint-result: < 10 nM
//
compound: CCCCCC[C@@H]1Cc2ccc([C@H]3CC[C@](N)(COP(=O)(O)O)C3)cc2CO1
assayed-system: S1P1 (membranes prepared from S1P1/CHO cells) (Homo sapiens (Human), UniProt P21453)
reported-property: EC50
endpoint-result: < 10 nM
//
compound: C/C=C\CCCC[C@@H]1CCc2cc([C@H]3CC[C@](N)(COP(=O)(O)O)C3)ccc2C1
assayed-system: S1P1 (membranes prepared from S1P1/CHO cells) (Homo sapiens (Human), UniProt P21453)
reported-property: EC50
endpoint-result: < 10 nM
//
compound: N[C@@]1(COP(=O)(O)O)CC[C@@H](c2ccc3c(c2)CC[C@H](OCCOC2CCCCC2)C3)C1 (single isomer, unassigned)
assayed-system: S1P1 (membranes prepared from S1P1/CHO cells) (Homo sapiens (Human), UniProt P21453)
reported-property: EC50
endpoint-result: 10 to 100 nM
//
compound: COc1cc(CC[C@H]2CCc3cc([C@@H]4CC[C@@](N)(COP(=O)(O)O)C4)ccc3C2)ccc1F (single isomer, unassigned)
assayed-system: S1P1 (membranes prepared from S1P1/CHO cells) (Homo sapiens (Human), UniProt P21453)
reported-property: EC50
endpoint-result: < 10 nM
//
compound: COc1cccc(/C=C/[C@@H]2CCc3cc([C@H]4CC[C@](N)(COP(=O)(O)O)C4)ccc3C2)c1
assayed-system: S1P1 (membranes prepared from S1P1/CHO cells) (Homo sapiens (Human), UniProt P21453)
reported-property: EC50
endpoint-result: 10 to 100 nM

Entry NC1(COP(=O)(O)O)CC[C@H](c2ccc3c(c2)CC[C@@H](c2ccccc2)C3)C1 (single isomer, unassigned) , EC50 reported as 10 to 100 nM

----------
# assayed-system: S1P3 (membranes prepared from EDG3-Gal5-bla HEK293T cells) (Homo sapiens (Human), UniProt Q99500)
# assay: Receptor [35S] GTPγS binding assay (S1P3 GTPγS)
# Assay type: biochemical
# conditions: phosphate examples; read-out: S1P3 GTPγS
pEC50: −log10 of the molar value.
Measured pEC50 of individual entries

molecule: CN(C)CCCCC[C@@H]1CCc2cc([C@H]3CC[C@](N)(COP(=O)(O)O)C3)ccc2C1 [compound 561]
pEC50: < 6.20
//
molecule: CCCSCC[C@@H]1CCc2cc([C@H]3CC[C@](N)(COP(=O)(O)O)C3)ccc2C1 [compound 535]
pEC50: < 6.20
//
molecule: CCCCC1CCc2cc([C@H]3CC[C@](N)(COP(=O)(O)O)C3)ccc2C1=O (stereo partly shown) [compound 635]
pEC50: < 6.20

According to the records, this molecule C=CCOCCC[C@@H]1CCc2cc(C3CCC(N)(COP(=O)(O)O)C3)ccc2C1 (single isomer, unassigned) [compound 601] displays pEC50 of < 7.00

For this molecule ( CCOc1cccc(CO[C@@H]2CCc3cc([C@H]4CC[C@](N)(COP(=O)(O)O)C4)ccc3C2)c1 [compound 444] ), measured pEC50 is < 6.20

Recorded pEC50 (molecule N[C@]1(COP(=O)(O)O)CC[C@H](c2ccc3c(c2)CC[C@@H](COCCCC(F)(F)F)C3)C1 [compound 451] ): < 6.20

Field pEC50 (entry CC(C)OCCCC[C@H]1CCc2cc([C@H]3CC[C@](N)(COP(=O)(O)O)C3)ccc2C1 [compound 610] ) reads < 7.00

----------
# assayed-system: hS1P1/CHO cells (Homo sapiens (Human), UniProt P21453)
# Sequence (P21453 whole entry): as above
# assay: hS1P1 ERK phosphorylation (S1P1 pERK)
# conditions: phosphate examples
pEC50: −log10 of the molar value.
Listing: pEC50 of selected compounds

Use these answered entries as a reference point.
compound: CC(C)Oc1ccc(C[C@@H]2CCc3cc([C@H]4CC[C@](N)(COP(=O)(O)O)C4)ccc3C2)cc1
pEC50: 7.00 to 8.00
//
compound: CC(C)CCOCCO[C@H]1CCc2cc([C@H]3CC[C@](N)(COP(=O)(O)O)C3)ccc2C1
pEC50: > 8.00
//
compound: CCC/C=C\CO[C@H]1CCc2cc([C@H]3CC[C@](N)(COP(=O)(O)O)C3)ccc2C1
pEC50: > 8.00

Entry under test: Cc1ccccc1OC[C@@H]1CCc2cc([C@H]3CC[C@](N)(COP(=O)(O)O)C3)ccc2C1 . Its pEC50 was > 8.00

CCCCCC1CCc2cc([C@H]3CC[C@](N)(COP(=O)(O)O)C3)ccc2C1 (some centres unmarked) [compound 575] has a reported pEC50 of > 8.00

// pEC50 value for COc1ccc(F)c(CC[C@H]2CCc3cc([C@@H]4CC[C@@](N)(COP(=O)(O)O)C4)ccc3C2)c1 (single isomer, unassigned) : > 8.00

pEC50 reported for this compound CC(C)OCCCC[C@H]1CCc2cc([C@H]3CC[C@](N)(COP(=O)(O)O)C3)ccc2C1 : > 8.00

Form: compound = COc1ccccc1OC[C@@H]1CCc2cc([C@H]3CC[C@](N)(COP(=O)(O)O)C3)ccc2C1 ; pEC50 = > 8.00

The reported pEC50 of the compound N[C@]1(COP(=O)(O)O)CC[C@H](c2ccc3c(c2)CC[C@@H](CCC2CCOCC2)C3)C1 was > 8.00

Memo: CC/C=C\COC[C@@H]1CCc2cc([C@H]3CC[C@](N)(COP(=O)(O)O)C3)ccc2C1 , reported pEC50: > 8.00
